Read-out: Apoptosis regulator Bcl-2 (Homo sapiens)
assaySummary: LTEA_HepaRG_BCL2: Life Technologies and Expression Analysis (LTEA) Assay for Bcl-2 gene using HepaRG (AID 2283475);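 further: BCL2 transcript by TaqMan qRT-PCR normalised to ACTB GAPDH and POLR2A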
appliedConditions: mRNA level, 48 h; actives raise or lower the signal
Active and inactive are the calls of the source. How the source made its calls: active means hit-call score of the fitted dose curve at least 0.9, where 1 is the maximum; inactive means score below 0.9.
Would you mind answering with one of these outcomes? 1 for active, 0 for inactive

Example entries begin here.
[
  {
    "compound": "COCC(C)O (stereo not drawn)",
    "labelValue": 0
  },
  {
    "compound": "Oc1cccc(O)c1",
    "labelValue": 0
  },
  {
    "compound": "Cc1oc(-c2ccccc2)nc1CCOc1ccc(C[C@H](Nc2ccccc2C(=O)c2ccccc2)C(=O)O)cc1",
    "labelValue": 0
  }
]

# input Which outcome was entered for the compound CCCCC(CC)COC(=O)CCCCC(=O)OCc1ccccc1 (stereo not drawn) in this test?
# output 0

# input Which outcome did this test record for the compound OCCC(F)(F)C(F)(F)C(F)(F)C(F)(F)C(F)(F)C(F)(F)C(F)(F)C(F)(F)F ?
# output 0

# input Query: recorded result category for Nc1cccc2c(N)cccc12 in this test
# output 0

# input Which outcome did this test record for the compound COc1ccc([N+](=O)[O-])cc1N ?
# output 0

# input What is the recorded call for this compound in the test? CCc1ccc(CCOc2ccc(CC3SC(=O)NC3=O)cc2)nc1 (stereo not drawn)
# output 1

# input I would be grateful if you could indicate the recorded call for CCOC(=O)CC(O)(CC(=O)OCC)C(=O)OCC .
# output 0

# input Which result was noted for this compound in the test: CCCCCCC(=O)O
# output 0

# input Assay result, entry Cc1cc(C)c(O)c(C)c1 — outcome?
# output 0

# input Test call for this compound, please: CCCCCCCCCCCCCCCS(=O)(=O)Oc1ccccc1
# output 0

# input Fill in: this test's call for NC(=O)N1C(=O)C(C(=O)c2cc(Cl)cs2)c2cc(F)c(Cl)cc21 (stereo not drawn) is ___
# output 1

====

assaySystem: Retinoic acid receptor alpha (Homo sapiens) (UniProt P10276)
Sequence (P10276 whole entry, looked up): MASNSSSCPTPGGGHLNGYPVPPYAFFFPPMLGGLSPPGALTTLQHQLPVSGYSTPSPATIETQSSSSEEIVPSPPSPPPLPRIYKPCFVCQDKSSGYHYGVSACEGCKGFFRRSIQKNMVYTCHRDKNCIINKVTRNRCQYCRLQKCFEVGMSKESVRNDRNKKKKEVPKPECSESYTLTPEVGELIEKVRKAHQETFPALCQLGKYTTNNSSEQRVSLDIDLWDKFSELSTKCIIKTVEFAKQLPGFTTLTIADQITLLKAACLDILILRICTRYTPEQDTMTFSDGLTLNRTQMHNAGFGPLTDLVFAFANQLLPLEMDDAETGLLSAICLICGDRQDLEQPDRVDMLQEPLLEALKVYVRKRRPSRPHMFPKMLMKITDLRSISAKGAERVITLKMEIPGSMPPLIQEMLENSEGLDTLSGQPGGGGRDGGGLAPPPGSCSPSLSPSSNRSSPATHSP
assaySummary: ATG_RARa_TRANS: Attagene TRANS-FACTORIAL HepG2 Assay for human Retinoic Acid Receptor alpha (RARa) (AID 2283005)
Inconclusive results are not listed. Calls of active or inactive are those of the source. The calls were made as follows: active = hit-call score of the fitted dose curve at least 0.9, where 1 is the maximum; inconclusive = response in the unintended direction; inactive = score below 0.9.
propertyLabel: outcome

// worked examples, outcome included
[
  {
    "compound": "c1ccc2cc3c(ccc4ccccc43)cc2c1",
    "outcome": "inactive"
  },
  {
    "compound": "OCCC(F)(F)C(F)(F)C(F)(F)C(F)(F)C(F)(F)C(F)(F)F",
    "outcome": "inactive"
  },
  {
    "compound": "NC(=O)N1C(=O)C(C(=O)c2cc(Cl)cs2)c2cc(F)c(Cl)cc21 (stereo not given)",
    "outcome": "inactive"
  },
  {
    "compound": "COC(=O)CCCCC(=O)OC",
    "outcome": "inactive"
  }
]

Summary for this compound, CCCOC(=O)c1ccc(O)cc1 : outcome is inactive

====

Read-out: Nuclear factor erythroid 2-related factor 2 (Homo sapiens)
assaySummary: LTEA_HepaRG_NFE2L2: Life Technologies and Expression Analysis (LTEA) Assay for Nuclear factor erythroid 2-related factor 2 (NFE2L2) Transcription Factor using HepaRG (AID 2283527)
appliedConditions: mRNA level, 48 h; actives raise or lower the signal
The source made the active and inactive calls. How the source made its calls: active means hit-call score of the fitted dose curve at least 0.9, where 1 is the maximum; inactive means score below 0.9.
Select the correct class. Options are label 1 (active), label 0 (inactive) and nothing else.

For orientation, consider the following solved cases.
[
  {
    "compound": "c1ccc2c(c1)Cc1ccccc1-2",
    "labelValue": "label 0"
  },
  {
    "compound": "NC(=O)N1C(=O)C(C(=O)c2cc(Cl)cs2)c2cc(F)c(Cl)cc21 (stereo unspecified)",
    "labelValue": "label 1"
  },
  {
    "compound": "CCCCCCCCCCCCCCCS(=O)(=O)Oc1ccccc1",
    "labelValue": "label 0"
  }
]

# input For this compound, state the assay outcome: CC(O)CO (stereo unspecified)
# output label 0

# input Hi, do you know how COCC(C)O (stereo unspecified) came out in this test?
# output label 0

# input For O=[N+]([O-])c1ccc(O)cc1 , which call appears in the assay record?
# output label 0
